Every entry's value here was drawn from patent US20210017281A1.

Collected pKd values appear next to each entry.
Target: T1, human VISTA (human, UniProt Q9H7M9 33-194, limits assumed)
T1 construct: The ELISA text says only recombinant VISTA; also called recombinant VISTA
Experiment: method not stated (Table 1, column Kd, M)
pKd: −log10 of the molar value.
readoutName: pKd

VSTB49 (antibody, V domains shown) VH: QVQLVQSGAEVKKPGASVKVSCKASGYTFPSHTIHWVRQAPGQRLEWMGSIYPFIDSTIYNQKFKDRVTITRDTSASTAYMELSSLRSEDTAVYYCARGIRGYTMDYWGQGTLVTVSS VL: DVVMTQSPLSLPVTLGQPASISCRASESVDNYGLSFMNWFQQRPGQSPRRLIYGASNQGSGVPDRFSGSGSGTDFTLKISRVEAEDVGVYYCQQSKEVPYTFGQGTKLEIKR | 9.29
VSTB109 (antibody, V domains shown) VH: QVQLVQSGAEVKKPGSSVKVSCKASGGTFSSYAISWVRQAPGQGLEWMGGIIPIFGTANYAQKFQGRVTITADESTSTAYMELSSLRSEDTAVYYCARSSYGWSYEFDYWGQGTLVTVSS VL: DIQMTQSPSSLSASVGDRVTITCRASQSIATYLNWYQQKPGKAPKLLIYAASSLQSGVPSRFSGSGSGTDFTLTISSLQPEDFATYYCQQNHNRPITFGQGTKVEIKR | 9.99
VSTB108 (antibody, V domains shown) VH: QVQLVQSGAEVKKPGSSVKVSCKASGGTFSSYAISWVRQAPGQGLEWMGGIIPIFGTANYAQKFQGRVTITADESTSTAYMELSSLRSEDTAVYYCARNTFGWSGELDYWGQGTLVTVSS VL: DIQMTQSPSSLSASVGDRVTITCRASQSISNRLNWYQQKPGKAPKLLIYSASSLQSGVPSRFSGSGSGTDFTLTISSLQPEDFATYYCQQNHDNPITFGQGTKVEIKR | 9.31
VSTB74 (antibody, V domains shown) VH: QMQLVQSGPEVKKPGTSVKVSCKASGYIFTDYNIDWVRQARGQRLEWIGDINPKYDSTRYNQKFKGRVTITRDMSTSTAYMELSSLRSEDTAVYYCAADGSSAMDYWGQGTTVTVSS VL: DIVMTQSPDSLAVSLGERATINCKSSQSLLNSGHQKNYLAWYQQKPGQPPKLLIYGASTRESGVPDRFSGSGSGTDFTLTISSLQAEDVAVYYCQNDHRYPLTFGQGTKLEIKR | 9.25
VSTB78 (antibody, V domains shown) VH: QVQLVQSGAEVKKPGASVKVSCKASGYTFTNYWMHWVRQAPGQGLEWMGYINPSSGYTEYNQKFKDRVTMTRDTSTSTVYMELSSLRSEDTAVYYCARDGGSVLFGYWGQGTTVTVSS VL: DIVMTQSPDSLAVSLGERATINCKSSQSLLNSGIRKNYLAWYQQKPGQPPKLLIYSASTRESGVPDRFSGSGSGTDFTLTISSLQAEDVAVYYCKQSYNLYTFGQGTKLEIKR | 8.95
INX915 | VSTB106 (antibody, V domains shown) VH: QVQLVQSGAEVKKPGSSVKVSCKASGGTFSSYAISWVRQAPGQGLEWMGGIIPIFGTANYAQKFQGRVTITADESTSTAYMELSSLRSEDTAVYYCARSSYGWSYEFDYWGQGTLVTVSS VL: DIQMTQSPSSLSASVGDRVTITCRASQSIRTDLNWYQQKPGKAPKLLIYSASSLQSGVPSRFSGSGSGTDFTLTISSLQPEDFATYYCQQNERTPITFGQGTKVEIKR | 9.78
INX911 | VSTB76 (antibody, V domains shown) VH: QVQLVQSGAEVKKPGASVKVSCKASGYTFTDYWINWVRQAPGQGLEWMGNIYPSHSYTNYNQEFKDRVTMTRDTSTSTVYMELSSLRSEDTAVYYCARGGYRYPYYAMDYWGQGTTVTVSS VL: AIQLTQSPSSLSASVGDRVTITCGASENIYGALNWYQQKPGKAPKLLIYGATNLADGVPSRFSGSGSGTDFTLTISSLQPEDFATYYCQNVLSTPYTFGQGTKLEIKR | 8.88
VSTB111 (antibody, V domains shown) VH: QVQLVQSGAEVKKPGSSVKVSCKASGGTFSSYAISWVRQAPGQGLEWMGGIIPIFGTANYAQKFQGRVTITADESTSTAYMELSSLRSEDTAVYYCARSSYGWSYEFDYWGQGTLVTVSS VL: DIQMTQSPSSLSASVGDRVTITCRASQSINTDLNWYQQKPGKAPKLLIYAASSLQSGVPSRFSGSGSGTDFTLTISSLQPEDFATYYCQQNRGSPITFGQGTKVEIKR | 9.77
INX919 | VSTB115 (antibody, V domains shown) VH: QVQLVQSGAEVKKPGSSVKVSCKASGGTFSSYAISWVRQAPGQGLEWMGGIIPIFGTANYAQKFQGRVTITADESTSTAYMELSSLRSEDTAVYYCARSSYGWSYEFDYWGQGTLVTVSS VL: DIQMTQSPSSLSASVGDRVTITCRASQSIRTYLNWYQQKPGKAPKLLIYAASSLQSGVPSRFSGSGSGTDFTLTISSLQPEDFATYYCQQAYSNPITFGQGTKVEIKR | 9.84
VSTB60 (antibody, V domains shown) VH: QVQLVQSGSELKKPGASVKVSCKASGYTFTNYGMTWVRQAPGQGLEWMGWINTYTGESTYADDFKGRFVFSLDTSVSTAYLQICSLKAEDTAVYYCARDYYGIYVSAYWGQGTLVTVSS VL: DIVMTQTPLSLSVTPGQPASISCRASESVDNYANSFMHWYLQKPGQSPQLLIYRASNLESGVPDRFSGSGSGTDFTLKISRVEAEDVGVYYCQQSHEDPYTFGQGTKLEIKR | 9.45
